- test.name: Gravimetric titration with HCl to determine pKa
- stated.conditions: water
Where a SMILES comes first, the peptide text is derived from it. Bridges are numbered along the chain shown (N, C = ends). [ ]: non-standard residue; d: D form. The star is where a group is joined. Octanoyl(6-Me) = CCC(C)CCCCC(=O)*; Dab = NCC[CH](N)C(=O)O
recorded.endpoint: pKa

Challenge: GET /values?readout=pKa&item= CCC(C)CCCCC(=O)NC(CCN)C(=O)NC(C(=O)NC(CCN)C(=O)NC1CCNC(=O)C(C(C)O)NC(=O)C(CCN)NC(=O)C(CCN)NC(=O)C(CC(C)C)NC(=O)C(CC(C)C)NC(=O)C(CCN)NC1=O)C(C)O (stereo not shown) [colistin component IV] ({Octanoyl(6-Me)}-[Dab]T[Dab][Dab][Dab]LL[Dab][Dab]T; lactam 4-C; configuration not given here)
Response given: ~9

Sourced from patent EP0920324B1
